# TEST: Plasma pharmacokinetics, QD and BID cohorts (non-compartmental)
# Assay type: in vivo, human
# CONDITION NOTES: human, plasma, oral, QD, 25 mg to 175 mg; C1D1; read-out: median Tmax, range across cohorts
REPORTED ENDPOINT: Tmax

Fill blank: measured Tmax of the compound Nc1ncc(-c2cnn(C3CCNCC3)c2)cc1-c1nnc(CC2CC2)o1 [SLC-391] is ____. 0.9 to 2.1 h

###

# TEST: Plasma pharmacokinetics, QD and BID cohorts (non-compartmental)
# Format: in vivo, human
# CONDITION NOTES: human, plasma, oral, 110 mg, 110 mg BID, C1D21, median, n=3, plasma; read-out: AUC0–12
REPORTED ENDPOINT: AUC (ng·h/mL)
A number alone suffices; assume ng·h/mL.

Fill blank: measured AUC of the compound Nc1ncc(-c2cnn(C3CCNCC3)c2)cc1-c1nnc(CC2CC2)o1 [SLC-391] is ____. 1390
